Task for the reader: assign each of the following molecules its reported MIC.
# Test system: S. aureus LAC MRSA (Sa LAC)
# TEST_DESCRIPTION: MIC, broth microdilution, Sa LAC
# Format: cell-based
# CONDITION_DETAILS: Staphylococcus aureus, Table 1, HT series, read-out: Minimum inhibitory concentration (MIC) Sa LAC
Return type: number; implicit unit µg/mL.

Which value of MIC has been reported for Oc1ccc(-c2nc(-c3cccc(Cl)c3)cs2)cc1O [Compound 3] in the records? 8

Please give the measured MIC for this molecule: Oc1ccc(-c2nc(-c3ccc(C(F)(F)F)cc3)cs2)cc1O [Compound 9] 8

Fill in: MIC of Oc1ccc(-c2nc(-c3cc(C(F)(F)F)cc(C(F)(F)F)c3)cs2)cc1O [Compound 10] is ___ 2

Which MIC is reported for this molecule? Oc1ccc(-c2nc(-c3ccc(Br)cc3)cs2)cc1O [Compound 5] 4

If you can, please state the reported MIC value of Oc1ccc(-c2nc(-c3ccccc3)cs2)cc1O [Compound 2, 4-(4-phenylthiazol-2-yl)benzene-1,2-diol] . 32

###

Please provide measured MIC for the entries that follow.
# System: S. aureus ATCC 25923 (Sa 23)
# TEST_DESCRIPTION: MIC, broth microdilution, Sa 23
# Assay type: cell-based
# CONDITION_DETAILS: Staphylococcus aureus, ATCC25923, Table 2, HTM series; read-out: Minimum inhibitory concentration (MIC) Sa 23
The reply must contain the numeric value and, after it, the unit.

Consider the molecule Cc1ccc(Nc2nc(-c3ccc(O)cc3)cs2)cc1Cl and give its measured MIC. 4 µg/mL

Need MIC, item Oc1ccc(-c2csc(Nc3ccc(Cl)c(Cl)c3)n2)cc1O 4 µg/mL

What value of MIC has been recorded for this entry: Oc1ccc(-c2csc(Nc3cc(Cl)ccc3Cl)n2)cc1 4 µg/mL

# lookup: MIC of Oc1ccc(-c2csc(-c3ccc(C(F)(F)F)cc3)n2)cc1O 4 µg/mL

Could you share which MIC value was measured for Oc1ccc(-c2csc(Nc3ccc(Cl)c(Cl)c3)n2)cc1 ? 2 µg/mL

Dear colleague, I am looking for the recorded MIC of the following molecule: Oc1ccc(-c2csc(Nc3cc(Cl)c(Cl)cc3Cl)n2)cc1 1 µg/mL

Fill blank: measured MIC of the molecule Oc1ccc(-c2csc(-c3cc(Cl)cc(Cl)c3)n2)cc1 is ____. 1 µg/mL

Sample Oc1ccc(-c2csc(Nc3cc(C(F)(F)F)cc(C(F)(F)F)c3)n2)cc1O — what was its MIC? 4 µg/mL

Which measured MIC value corresponds to Oc1ccc(-c2csc(Nc3cc(C(F)(F)F)cc(C(F)(F)F)c3)n2)cc1 ? 1 µg/mL

Looking for the measured MIC of Oc1ccc(-c2csc(-c3ccc(Cl)c(Cl)c3)n2)cc1 , can you help? 1 µg/mL

###

# System: S. aureus subsp. aureus Rosenbach ATCC 25904 (SA Newman)
# TEST_DESCRIPTION: MIC, broth microdilution, SA Newman
# Type: cell-based
# CONDITION_DETAILS: Staphylococcus aureus; Table 2, HTM series; read-out: Minimum inhibitory concentration (MIC) Sa Newman
READOUT_KIND: MIC (µg/mL)
Just the number please, in µg/mL, no unit attached.

For the molecule shown here, Oc1ccc(-c2csc(Nc3ccc(Cl)c(Cl)c3)n2)cc1 [Compound 75] , give the reported MIC. 4

Which MIC is reported for this molecule? Oc1ccc(-c2csc(Nc3ccc(Cl)c(Cl)c3)n2)cc1O [Compound 74] 8

MIC for Oc1ccc(-c2csc(Nc3cc(C(F)(F)F)cc(C(F)(F)F)c3)n2)cc1O [Compound 58] ? 4

Return reported MIC; argument: Oc1ccc(-c2csc(-c3cc(Cl)cc(Cl)c3)n2)cc1 [Compound 43] 1

If you can, please state the reported MIC value of Oc1ccc(-c2csc(Nc3cc(C(F)(F)F)cc(C(F)(F)F)c3)n2)cc1 [Compound 59] . 1

# input molecule: Oc1ccc(-c2csc(-c3ccc(Cl)c(Cl)c3)n2)cc1 [Compound 65] ; wanted: its MIC 2

Look up MIC for this molecule: Oc1ccc(-c2csc(Nc3cc(Cl)c(Cl)cc3Cl)n2)cc1 [Compound 69] 4

Name the recorded MIC for Oc1ccc(-c2csc(-c3ccc(C(F)(F)F)cc3)n2)cc1O [Compound 47] . 8

Name the recorded MIC for Cc1ccc(Nc2nc(-c3ccc(O)cc3)cs2)cc1Cl [Compound 67] . 4

If you can, please state the reported MIC value of Oc1ccc(-c2csc(Nc3cc(Cl)ccc3Cl)n2)cc1 [Compound 73] . 4
